experiment: in vitro; conditions: African green monkey
QUANTITY KIND: CC50 at 24 h

Measured CC50 at 24 h, O=C(NC1CCC(F)(F)CC1)[C@@H](c1cncnc1)N(C(=O)[C@@H](F)Cl)c1ccc(-c2cncs2)cc1 (single isomer, unassigned) : > 25 µM

The reported value for N#Cc1cc(OC(F)(F)F)ccc1N(C(=O)CCl)C(C(=O)NC1CCCCC1)c1cccnc1 (centres unmarked) in terms of CC50 at 24 h is > 50 µM

---

molecular target: SARS-CoV-2 M^PRO (Severe acute respiratory syndrome coronavirus 2); experiment: biochemical; assay type: biochemical; conditions: In vitro potency data; 30 min pre-incubation, 25 nM M^pro, 25 µM substrate; listed as INSCoV-601R(lB); read-out: IC50
QUANTITY KIND: IC50 (nM)
I only need the number, in nM, no unit after it.

Value of measured IC50 for the entry O=C(NC1CCOC1)[C@H](c1cncnc1)N(C(=O)CCl)c1ccc(-c2cncs2)cc1 (stereo partly shown) [INSCoV-601R(1B)] : 440
